Target: Serine/threonine-protein kinase TAO1 (Homo sapiens)
Sequence (Q7L7X3 whole entry): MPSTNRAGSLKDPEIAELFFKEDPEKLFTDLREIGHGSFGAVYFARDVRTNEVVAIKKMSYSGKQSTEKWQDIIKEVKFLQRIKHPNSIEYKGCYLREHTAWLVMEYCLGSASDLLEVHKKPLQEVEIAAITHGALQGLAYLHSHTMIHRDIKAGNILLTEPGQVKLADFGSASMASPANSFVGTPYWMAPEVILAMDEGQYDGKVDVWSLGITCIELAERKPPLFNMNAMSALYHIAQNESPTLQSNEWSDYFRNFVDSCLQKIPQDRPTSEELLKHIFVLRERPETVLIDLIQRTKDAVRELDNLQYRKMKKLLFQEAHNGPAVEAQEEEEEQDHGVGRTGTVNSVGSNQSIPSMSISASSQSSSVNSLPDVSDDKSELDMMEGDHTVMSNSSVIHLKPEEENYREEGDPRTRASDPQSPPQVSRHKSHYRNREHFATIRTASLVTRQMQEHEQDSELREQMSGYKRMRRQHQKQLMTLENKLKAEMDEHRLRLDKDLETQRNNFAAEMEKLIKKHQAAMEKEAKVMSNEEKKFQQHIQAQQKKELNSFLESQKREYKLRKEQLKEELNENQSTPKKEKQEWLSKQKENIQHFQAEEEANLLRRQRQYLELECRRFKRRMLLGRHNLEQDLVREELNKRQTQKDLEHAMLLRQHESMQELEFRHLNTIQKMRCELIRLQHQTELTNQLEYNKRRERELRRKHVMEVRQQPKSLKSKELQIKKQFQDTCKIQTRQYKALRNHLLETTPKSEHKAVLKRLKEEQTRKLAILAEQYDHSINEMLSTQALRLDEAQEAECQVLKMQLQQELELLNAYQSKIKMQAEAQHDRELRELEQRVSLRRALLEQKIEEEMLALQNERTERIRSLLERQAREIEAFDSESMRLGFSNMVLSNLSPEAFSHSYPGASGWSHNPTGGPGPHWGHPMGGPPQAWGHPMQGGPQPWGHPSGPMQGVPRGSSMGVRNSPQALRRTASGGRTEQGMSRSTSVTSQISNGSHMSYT
pIC50: −log10 of the molar value.

# compound-smiles, pIC50
records = [
    ("COc1cc(N2CCC(N3CCN(C)CC3)CC2)ccc1Nc1ncc(Cl)c(Nc2ccccc2P(C)(C)=O)n1", 6.31),
]
